- System: T1, human PD-L1 protein (soluble) (human, UniProt Q9NZQ7 19-239)
- T1 construct: also called PD-L1 (R&D Systems); His-tagged PD-L1 protein
- T1 sequence (Q9NZQ7 19-239 limits assumed): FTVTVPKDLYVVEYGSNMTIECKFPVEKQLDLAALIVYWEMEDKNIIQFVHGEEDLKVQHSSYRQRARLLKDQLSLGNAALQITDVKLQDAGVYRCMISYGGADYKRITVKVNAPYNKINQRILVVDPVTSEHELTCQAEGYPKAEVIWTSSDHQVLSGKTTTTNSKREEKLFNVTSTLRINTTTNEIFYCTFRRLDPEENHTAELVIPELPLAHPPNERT
- Assay overview: SPR, mAb captured on anti-human IgG Fc, PD-L1 as analyte;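 further: array SPR with mAb supernatants captured at several densities, PD-L1 injected for 5 min then 15 min dissociation, non-regenerative kinetic series, double-referenced against interspot surface and blank injection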
Overview of recorded kon for various binders

Binder | Uom | kon
antibody A19 (antibody, V domains shown, Tested as full-length mAb made in CHO cells; also called L19H19) VH: QVQLVESGGGVVQPGRSLRLSCVASGFTFSSYGMHWVRQAPGKGLEWVAVIWYDGSNKFYIDSVKGRFTISRDNSKNTLYLQMNSLRAEDTAVYYCARGGAVAGTSWYYYYGMDVWGQGTTVTVSS VL: DIQLTQSPSFLSASVGDRVTITCRASQGISSYLAWYQQKPGKAPKLLIYDASTLQSGVPSRFSGSGSGTEFTLTISSLQPEDFAIYYCQQLNTYPLTFGGGTKVEIK | M⁻¹ s⁻¹ | 6200
antibody A11 (antibody, V domains shown, Tested as full-length mAb made in CHO cells; also called L11H11) VH: QVQLVESGGGVVQPGRSLRLSCAASGFTFSSYGIHWVRQAPGKGLEWVAVIWSDGSNKFYADSVKGRFTISRDNSKNTLFLQMSSLRAEDTAVYYCARDIAAAIDYWGQGTLVTVSS VL: AIQMTQSPSSLSASVGDRVTITCRASQGIRNDLGWYQQKPGKAPKLLIYAASSLQSGVPSRFSGSGSGTDFTLTISSLQPEDFATYYCLQDYNYPYTFGQGTKLEIK | M⁻¹ s⁻¹ | 170000
antibody A2 (antibody, V domains shown, Tested as full-length mAb made in CHO cells; also called L2H2) VH: EVQLVESGGGLVQPGGSLRLSCAASGFTFSRYDMSWVRQAPGKGLEWVSTISGSGGSTYYADSVKGRFTISRDNSKTTLYLQMISLRAEDTAVYYCAKAGFTMIVVAFDYWGQGTLVTVSS VL: DIQMTQSPSSLSASVGDRVTITCRASQGISNYLAWFQQKPGKAPKSLIYAASSLQSGVPSKFSGSGSGTDFTLTISSLQPEDFATYYCQQYNSYPYTFGQGTKLEIK | M⁻¹ s⁻¹ | 1.1e+06
antibody A12 (antibody, V domains shown, Tested as full-length mAb made in CHO cells; also called L12H12) VH: QVQLVESGGGVVQPGRSLRLSCAASGFTFSSYGMHWVRQAPGKGLEWVAVIWYDGSNKSYADSVKGRFTFSRDNSKNTLYLQMNSLRAEDTAVYYCARDMDYFGLDVWGQGTTVTVSS VL: DIQMTQSPSSLSASVGDRVTITCRASQGIRNDLGWYQQKPGKAPKRLIYAASSLQSGVPSRFSGSGSGTEFTLTISSLQPEDFATYYCLQHNSYPRTFGQGTKVEIK | M⁻¹ s⁻¹ | 160000
antibody A3 (antibody, V domains shown, Tested as full-length mAb made in CHO cells; also called L3H3) VL: AIQMTQSPSSLSASVGDRVTITCRASQDIRNDLGWYQQQPGKAPKLLIYAASSLQSGVPSRFSGSGSGTDFTLTISSLQPEDFATYYCLQDYNYPPTFGQGTKVEIK V domain: QVQLVESGGGVVQPGRSLRLSCAASGFTFSNYGMHWVRQAPGKGLEWVAVIWFDGNTKYYTDSVKGRFTISRDNSKNTLYLQMNSLRAEDTAVYYCARDTTMVPMDVWGQGTTATVSS | M⁻¹ s⁻¹ | 370000
antibody A7 (antibody, V domains shown, Tested as full-length mAb made in CHO cells; also called L7H7) VH: QVQLQESGPGLVKPSETLSLTCTVSGGSISSYYWSWIRQPPGKGLEWIGYIFYSGSTNYNPSLKSRVTISVDTSKNQFSLKLSSVTAADTAVYFCARDNWHDGGVDYWGQGTLVTVSS VL: EIVMTQSPTTLSLSPGERATLSCRASQSVSSSYLSWYQQKPGQAPRLLIYGASTRATGIPARFSGSGSGTDFTLTISSLQPEDFAVYYCQQDYNLRTFGQGTKVEIK | M⁻¹ s⁻¹ | 570000
antibody A5 (antibody, V domains shown, Tested as full-length mAb made in CHO cells; also called L5H5) VH: QVQLVESGGGVVQPGRSLRLSCAASGFAFSSYGMHWVRQAPGKGLEWVALIWFDGNNKFYADSVKGRFTISRDNSKNTLYLQMNSLRAEDTAVYYCARDTTAASFDYWGQGTLVTVSS VL: EIVMTQSPATLSLSPGERATLSCRASQSVSSTYLSWYQQKPGQAPRLLIFGASTRATGIPARFSGSGSGTDFTLTISSLQPEDFAVYYCQQDYNLPPTFGPGTKVDIK | M⁻¹ s⁻¹ | 590000
antibody A8 (antibody, V domains shown, Tested as full-length mAb made in CHO cells; also called L8H8) VH: QVQLVQSGAEVKKPGASVKVSCKASGYTFTSYGISWVRQAPGQGLEWMGWISAYNGSTNYAQKLQGRVTMTTDTSTSTAYMELRSLRSDDTAVFYCARDDRIAVADYYYYFGMDVWGQGTTVTVSS VL: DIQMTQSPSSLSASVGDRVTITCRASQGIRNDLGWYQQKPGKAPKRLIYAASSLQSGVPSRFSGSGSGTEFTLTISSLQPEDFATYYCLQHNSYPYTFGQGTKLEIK | M⁻¹ s⁻¹ | 570000
antibody A20 (antibody, V domains shown, Tested as full-length mAb made in CHO cells; also called L20H20) VH: QVQLQESGPGLVKPSETLSLTCTVSGGSISSYYWSWIRQPPGKGLEWIGYIYYSGSTNYNPSLKSRVTISVDTSKNQFSLKLSSVTAADTAVYYCARDDRIAVGPYYYYYGMDVWGQGTTVTVSS VL: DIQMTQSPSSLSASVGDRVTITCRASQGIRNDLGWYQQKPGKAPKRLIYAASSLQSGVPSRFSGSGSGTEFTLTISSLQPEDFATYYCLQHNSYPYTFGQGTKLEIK | M⁻¹ s⁻¹ | 160000
antibody A6 (antibody, V domains shown, Tested as full-length mAb made in CHO cells; also called L6H6) VH: QVQLVESGGGVVQPGRSLRLSCAASGFTFSSYGMHWVRQAPGKGLEWVAVIWFDGSNKYYADSVKGRFTISRDNSKNTLYLQMNSLRAEDTAVYYCARDKTVSPFDIWGQGTMVTVSS VL: EIVMTQSPATLSLSPGERATLSCRASQSVSSSYLSWYQQKPGQAPRLLIYGASTRATGIPARFSGSGSGTDFTLTISSLQPEDFAVYYCQQDYNLFTFGPGTKVDIK | M⁻¹ s⁻¹ | 310000
